Tested on: Human alphaherpesvirus 2
test.description: Antiviral activity against HSV2 G infected in HEL cells assessed as inhibition of virus-induced cytopathogenicity after 4 days
Format: functional, organism-based
test.settings: Human alphaherpesvirus 2, strain G, 96 h
attribute.measured: EC50

{"columns": ["chemical.smiles", "attribute.measured", "assay.value"],
 "data": [
  ["CCOC(=O)c1c(C)nc(NCCCNc2ccnc3cc(Cl)ccc23)nc1C", "EC50", "> 100 µM"],
  ["Nc1ccn(C[C@@H](CO)OCP(=O)(O)O)c(=O)n1", "EC50", "0.9 µM"],
  ["CCOC(=O)c1c(C)nc(NCCCCNc2ccnc3cc(Cl)ccc23)nc1-c1ccccc1", "EC50", "> 100 µM"],
  ["Cc1nc(NCCNc2ccnc3cc(Cl)ccc23)nc(-c2ccccc2[N+](=O)[O-])c1C(=O)OC(C)C", "EC50", "> 100 µM"],
  ["CCOC(=O)c1c(C)nc(NCCNc2ccnc3cc(Cl)ccc23)nc1-c1ccccc1", "EC50", "> 4 µM"]
]}

Prompt: Data request, read-out EC50, for Cc1nc(NCCCNc2ccnc3cc(Cl)ccc23)nc(-c2cccc([N+](=O)[O-])c2)c1C(=O)OC(C)C
Completion: > 4 µM

Prompt: Then what about the molecule CCOC(=O)c1c(C)nc(NCCCCNc2ccnc3cc(Cl)ccc23)nc1C ?
Completion: > 20 µM

Prompt: Then what about the molecule Cc1nc(NCCCCNc2ccnc3cc(Cl)ccc23)nc(-c2ccccc2[N+](=O)[O-])c1C(=O)OC(C)C ?
Completion: > 4 µM

Prompt: Then what about the molecule CCOC(=O)c1c(C)nc(NCCCNc2ccnc3cc(Cl)ccc23)nc1-c1ccccc1 ?
Completion: > 100 µM

----------
Tested on: Influenza A virus
test.description: Antiviral activity against Influenza A virus H3N2 infected in MDCK cells assessed as reduction visual scoring of virus-induced cytopathogenicity after 4 days
Type: functional, organism-based
test.settings: 96 h
attribute.measured: EC50

Take a look at these entries with their results.
{"columns": ["compound", "measurement.target", "EC50"],
 "data": [
  ["CC(N)C12CC3CC(CC(C3)C1)C2 (stereo not given) [RIMANTADINE]", "Influenza A virus", "> 200000 nM"],
  ["NC12CC3CC(CC(C3)C1)C2 [AMANTADINE]", "Influenza A virus", "5000 nM"]
]}

Prompt: Data request, read-out EC50, for Cc1nc(NCCCNc2ccnc3cc(Cl)ccc23)nc(-c2cccc([N+](=O)[O-])c2)c1C(=O)OC(C)C
Completion: > 160 nM

Prompt: Then what about the compound CCOC(=O)c1c(C)nc(NCCCNc2ccnc3cc(Cl)ccc23)nc1-c1ccccc1 ?
Completion: > 160 nM

Prompt: Then what about the compound CCOC(=O)c1c(C)nc(NCCCCNc2ccnc3cc(Cl)ccc23)nc1-c1ccccc1 ?
Completion: > 160 nM

----------
Test system: Influenza A virus
test.description: Antiviral activity against Influenza A virus H1N1 infected in MDCK cells assessed as reduction visual scoring of virus-induced cytopathogenicity after 4 days
Type: functional, organism-based
test.settings: 96 h
pEC50: −log10 of the molar value.
attribute.measured: pEC50

{"columns": ["compound", "pEC50"],
 "data": [
  ["Cc1nc(NCCCNc2ccnc3cc(Cl)ccc23)nc(-c2cccc([N+](=O)[O-])c2)c1C(=O)OC(C)C", "< 6.80"],
  ["CCOC(=O)c1c(C)nc(NCCNc2ccnc3cc(Cl)ccc23)nc1-c1ccccc1", "< 6.80"],
  ["CCOC(=O)c1c(C)nc(NCCCNc2ccnc3cc(Cl)ccc23)nc1-c1ccccc1", "< 6.80"]
]}

Let us move to another entry and its pEC50.
Prompt: Please tell me: pEC50 of Cc1nc(NCCCCNc2ccnc3cc(Cl)ccc23)nc(-c2ccccc2[N+](=O)[O-])c1C(=O)OC(C)C , system Influenza A virus?
Completion: < 6.10

----------
test.description: Cytotoxicity against human HeLa cells assessed as minimum compound concentration required to causes microscopically detectable alteration of normal cell morphology
Assay type: cell-based
attribute.measured: MCC

Take a look at these entries with their results.
{"columns": ["compound", "MCC"],
 "data": [
  ["Cc1nc(NCCCCNc2ccnc3cc(Cl)ccc23)nc(-c2ccccc2[N+](=O)[O-])c1C(=O)OC(C)C", "100 µM"],
  ["CCOC(=O)c1c(C)nc(NCCCNc2ccnc3cc(Cl)ccc23)nc1-c1ccccc1", "> 100 µM"],
  ["CCOC(=O)c1c(C)nc(NCCCNc2ccnc3cc(Cl)ccc23)nc1C", "> 100 µM"],
  ["CCOC(=O)c1c(C)nc(NCCCCNc2ccnc3cc(Cl)ccc23)nc1-c1ccccc1", "> 100 µM"],
  ["Cc1nc(NCCNc2ccnc3cc(Cl)ccc23)nc(-c2ccccc2[N+](=O)[O-])c1C(=O)OC(C)C", "> 100 µM"],
  ["Cc1nc(NCCCNc2ccnc3cc(Cl)ccc23)nc(-c2cccc([N+](=O)[O-])c2)c1C(=O)OC(C)C", "20 µM"],
  ["Nc1ncnc2c1ncn2C[C@H](O)CO [(S)-DHPA]", "> 250 µM"],
  ["CCOC(=O)c1c(C)nc(NCCNc2ccnc3cc(Cl)ccc23)nc1-c1ccccc1", "20 µM"],
  ["NC(=O)c1ncn([C@@H]2O[C@H](CO)[C@@H](O)[C@H]2O)n1", "> 250 µM"]
]}

Prompt: Data request, read-out MCC, for CCOC(=O)c1c(C)nc(NCCCCNc2ccnc3cc(Cl)ccc23)nc1C
Completion: ≥ 20 µM

----------
test.description: Cytotoxicity against cat CRFK cells assessed as cell viability by colorimetric formazan-based MTS assay
Design: species or system Felis catus
test.settings: CRFK cells
attribute.measured: CC50

Take a look at these entries with their results.
{"columns": ["chemical.smiles", "CC50"],
 "data": [
  ["N[C@H]1C(C(=O)O)=CC=C[C@@H]1O", "> 100 µg/mL"],
  ["Nc1nc(O)c2ncn(COC(CO)CO)c2n1", "> 100 µM"]
]}

Prompt: Data request, read-out CC50, for CC(=O)N[C@H]1[C@@H](OP(=O)(O)OP(=O)(O)OC[C@H]2O[C@@H](n3ccc(=O)[nH]c3=O)[C@H](O)[C@@H]2O)O[C@H](CO)[C@@H](O)[C@@H]1O[C@@](C)(OP(=O)(O)O)C(=O)O
Completion: 15.8 µg/mL

----------
Tested on: Human alphaherpesvirus 1
test.description: Antiviral activity against thymidine kinase-deficient acyclovir-resistant HSV1 KOS infected in HEL cells assessed as inhibition of virus-induced cytopathogenicity after 4 days
Format: functional, organism-based
test.settings: Human alphaherpesvirus 1, KOS, 96 h
attribute.measured: EC50

Take a look at these entries with their results.
{"columns": ["chemical.smiles", "attribute.measured", "assay.value"],
 "data": [
  ["Cc1nc(NCCCCNc2ccnc3cc(Cl)ccc23)nc(-c2ccccc2[N+](=O)[O-])c1C(=O)OC(C)C", "EC50", "> 4 µM"],
  ["CCOC(=O)c1c(C)nc(NCCCCNc2ccnc3cc(Cl)ccc23)nc1C", "EC50", "> 100 µM"],
  ["CCOC(=O)c1c(C)nc(NCCNc2ccnc3cc(Cl)ccc23)nc1-c1ccccc1", "EC50", "> 4 µM"],
  ["CCOC(=O)c1c(C)nc(NCCCCNc2ccnc3cc(Cl)ccc23)nc1-c1ccccc1", "EC50", "> 100 µM"],
  ["CCOC(=O)c1c(C)nc(NCCCNc2ccnc3cc(Cl)ccc23)nc1C", "EC50", "> 100 µM"],
  ["Cc1nc(NCCCNc2ccnc3cc(Cl)ccc23)nc(-c2cccc([N+](=O)[O-])c2)c1C(=O)OC(C)C", "EC50", "> 4 µM"],
  ["Cc1nc(NCCNc2ccnc3cc(Cl)ccc23)nc(-c2ccccc2[N+](=O)[O-])c1C(=O)OC(C)C", "EC50", "> 20 µM"]
]}

Let us move to another entry and its EC50.
Prompt: Data request, read-out EC50, for CCOC(=O)c1c(C)nc(NCCCNc2ccnc3cc(Cl)ccc23)nc1-c1ccccc1
Completion: > 100 µM

----------
Test system: Respiratory syncytial virus
test.description: Antiviral activity against Respiratory syncytial virus infected in human HeLa cells assessed as inhibition of virus-induced cytopathogenicity after 4 days
Format: functional, organism-based
test.settings: 96 h
This listing pairs compounds with measured EC50.

Take a look at these entries with their results.
{"columns": ["compound", "EC50"],
 "data": [
  ["CCOC(=O)c1c(C)nc(NCCCCNc2ccnc3cc(Cl)ccc23)nc1C", "> 20 µM"],
  ["CCOC(=O)c1c(C)nc(NCCCCNc2ccnc3cc(Cl)ccc23)nc1-c1ccccc1", "> 100 µM"],
  ["CCOC(=O)c1c(C)nc(NCCNc2ccnc3cc(Cl)ccc23)nc1-c1ccccc1", "> 4 µM"],
  ["CCOC(=O)c1c(C)nc(NCCCNc2ccnc3cc(Cl)ccc23)nc1C", "> 100 µM"],
  ["NC(=O)c1ncn([C@@H]2O[C@H](CO)[C@@H](O)[C@H]2O)n1 [RIBAVIRIN]", "> 250 µM"],
  ["Cc1nc(NCCCNc2ccnc3cc(Cl)ccc23)nc(-c2cccc([N+](=O)[O-])c2)c1C(=O)OC(C)C", "> 4 µM"],
  ["Cc1nc(NCCCCNc2ccnc3cc(Cl)ccc23)nc(-c2ccccc2[N+](=O)[O-])c1C(=O)OC(C)C", "> 20 µM"],
  ["Nc1ncnc2c1ncn2C[C@H](O)CO [(S)-DHPA]", "6 µM"],
  ["Cc1nc(NCCNc2ccnc3cc(Cl)ccc23)nc(-c2ccccc2[N+](=O)[O-])c1C(=O)OC(C)C", "> 100 µM"]
]}

Prompt: Please tell me: EC50 of CCOC(=O)c1c(C)nc(NCCCNc2ccnc3cc(Cl)ccc23)nc1-c1ccccc1 , system Respiratory syncytial virus?
Completion: > 100 µM
